test: Acute toxicity by oral route in the rat; assay type: in vivo; conditions: rat, in vivo, po, rat, evaluated ten days after administration

| Molecule | LD50 at 240 h |
| --- | --- |
| CC(C)Cc1ccc(C(C)C(=O)SC(C)C(=O)NCC(=O)O)cc1 (stereo not shown) | > 900 mg/kg |

---

Assay: Acute toxicity by oral route in the rat
Assay type: in vivo
Conditions: rat, in vivo; TREATMENT 900 (900 mg/Kg elsewhere in the source), oral by gastric probe, evaluated ten days after administration
Experimental: Sprague-Dawley albine rats having an average weight of 120 + 5 g and of both sexes were used. For each compound 40 rats were treated. The test compound as a suspension in 5% arabic gum was administered through a gastric probe. The results were evaluated ten days after the administration.

| Molecule | mortality at 240 h, % |
| --- | --- |
| CC(C)Cc1ccc(C(C)C(=O)SC(C)C(=O)NCC(=O)O)cc1 (stereo not shown) [test compound] | 0 |

---

assay: Solubility in water; format: physicochemical
Counter-ions that a name gives are not always drawn.

| Molecule | solubility in water |
| --- | --- |
| CC(C)Cc1ccc(C(C)C(=O)SC(C)C(=O)NCC(=O)O)cc1 (stereo not shown) [calcium salt] | insoluble |
| CC(C)Cc1ccc(C(C)C(=O)SC(C)C(=O)NCC(=O)O)cc1 (stereo not shown) [sodium salt] | highly soluble in water |
| CC(C)Cc1ccc(C(C)C(=O)SC(C)C(=O)NCC(=O)O)cc1 (stereo not shown) [potassium salt] | highly soluble in water |
| CC(C)Cc1ccc(C(C)C(=O)SC(C)C(=O)NCC(=O)O)cc1 (stereo not shown) [magnesium salt] | insoluble |
